Tested on: MS2 coat protein
assay-info: apparent KD of MS2 coat protein; designed switch direction (-1 OFF switch, 1 ON switch): -1; higher = weaker reporter binding
condition-set: input ligand: FMN 200 uM
Assign apparent KD of MS2 coat protein to each entry below.
Provide only the numeric value, understood in nM.

Memo: UGUUUACAUGAGGAUCACCCAUGUCAGGAUAUGCUCGAUAUAUGGAAACAUAUAUCGAGCAGAAGGGACUAGCG [Jieuxxlusion 4 - Jieux - Exclusion 1] (Eterna round: R97, puzzle: Exclusion 1) , reported apparent KD of MS2 coat protein: 85

Reported apparent KD of MS2 coat protein for CCAAACAGAGGAUAUGCGAAUAAAUAAAACUUUUUUUUUUAACAUGAGGAUCACCCAUGUAGAAGGCUGCAACC [Ex2 #40] (Eterna round: R97, puzzle: Exclusion 2) was 24.4

The sequence identified as CGAUAUAAGUCAGGAUAUGAGCGCAACUGACGAUCAGAAGGGACACAUGAGGAUCACCCAUGUGAUUUAUCAAUAUUAUACAUC [Prohibition 91 - Jieux - Exclusion NG 1] (Eterna round: R96, puzzle: Exclusion NG 1) registered its apparent KD of MS2 coat protein at 36.5

The reported value for CCCUCAAGCGAGGAUAUAAAUGCGCAUUCGCGGUUAGAAGGCGCUACAUGAGGAUCACCCAUGUAAUUGUAUGG [jl-ex6-4.53 ViennaUCT mod] (Eterna round: R97, puzzle: Exclusion 6) in terms of apparent KD of MS2 coat protein is 98.4

// sample ACAUGAGGAUCACCCAUGUGACCACAAUGGCUGAUGUAACGACAGGAUAUUCGUGAAUAUCUAACGAAGAAGGGUCAUGACUGG [Deportation 62 - Jieux - Exclusion NG 3] (Eterna round: R96, puzzle: Exclusion NG 3) , its apparent KD of MS2 coat protein was 98.8

Given item CCAAGCUUAUUCAUUAACCACAUGAGGAUCACCCAUGUAUAGGCAAUUAUGACUGGGCUCUUUGGUGCUCGUCUUAU [Sensor-V1 #26] (Eterna round: R97, puzzle: Sensor, turn-off variant 1) , the value recorded as its apparent KD of MS2 coat protein is 11.5

So for UCAGUUAUGCGAGGAUAUCGACCUUUCCUCUUAACAUGAGGAUCACCCAUGUGCUAAUCCUUCAACGAGAAGGCGCUCAAACUC [JR_ExcNG2_Sub070] (Eterna round: R96, puzzle: Exclusion NG 2) , the logged apparent KD of MS2 coat protein turned out to be 260

Just so you know, measured apparent KD of MS2 coat protein for GUAAUUAAUGUAGGAUAUGCAAGGCGAACCUAAGCAGAAGGACAUGUGGAUCACCCAUGACAUGAGGAUCACCCAUGUAUCGCU [salish99_ExNG1_r4_005] (Eterna round: R96, puzzle: Exclusion NG 1) came out at 109

Form field apparent KD of MS2 coat protein, entry UGAGCUCUAGUAGGAUAUGUCGGAUAUGUUGUUGAGGUUCACCCAACGACGUCAAUGACAGAAGGACAGAAGGACUCCUGCUCU [pwkr exNG2 2xFMN 1xF5.7] (Eterna round: R96, puzzle: Exclusion NG 2) : 111

* * *

Tested on: MS2 coat protein
assay-info: apparent KD of MS2 coat protein; designed switch direction (-1 OFF switch, 1 ON switch): 1; higher = weaker reporter binding
condition-set: Eterna round: R95; input ligand: FMN 200 uM
Each entry gets Not met if its apparent KD of MS2 coat protein stays under 30 nM, and Met if its apparent KD of MS2 coat protein is 30 nM or above.

Hi team, for AGAAAGAAACAUGAGGAUCACCCAUGUACAAGCUUUUUGCUCGUCUUAUUACAUGGGUUCAUGGGUGAUCGGGAUGU [Tim MacKenzie] (puzzle: Sensor for hsa-mir-208a version 2) , is the recorded apparent KD of MS2 coat protein at or above 30 nM?
Not met

Record AAUAAACAUGAGGAUCACCCAUGUAAUAUAAAUGGAGGAUAUGCAAUUAUUAAUUAUUAAGUAGAAGGUCGAAUAA [Lollin - Epsilon 1] (puzzle: Same State 1) ; criterion: apparent KD of MS2 coat protein no lower than 30 nM. Met?
Met

Hi team, for AGAGAAGAAGCUGAGGAUAUCGUAAGGAGGACAUGAGGAUCACCCAUGUGUGUGGAAUUGGAGGACGAGAAGGCAGAGGAGUGGG [JR_SS2_Sub056] (puzzle: Same State 2) , is the recorded apparent KD of MS2 coat protein at or above 30 nM?
Not met

Is the recorded value of apparent KD of MS2 coat protein equal to or greater than 30 nM for this sequence? AGUCCAGCCUGAGCUGGACAAAAGCAUGUACAUGAGGAUCACCCAUGUUCAUGUACAAGCUUUUUGCUCGUCUUAUG [salish99_208a_r3_051] (puzzle: Sensor for hsa-mir-208a)
Met

Given the entry UACAAUCUAUCUGAGGAUAUCAUGAAUUACACAUGAGGAUCACCCAUGUGCAGGAAAACUGCAUAUGAGAAGGCAGAUAGAUUGU [salish99_ss2_r3_065] (puzzle: Same State 2) , answer whether its apparent KD of MS2 coat protein meets or surpasses 30 nM.
Met

Determine whether measured apparent KD of MS2 coat protein meets or exceeds 30 nM for AGUCCAGCCUGAGCUGGACAAAAGCAUGUACAUGAGGAUCACCCAUGUCAUGUACAAGCUUUUUGCUCGUCUAAAAU [Mat - hsa-mir-208a - Mod of JL - D6] (puzzle: Sensor for hsa-mir-208a)
Met

Dear colleague, could you confirm whether CUGUGUUGCGGGCAGGAUAUGUAUUGGGAUACAUGAGGAUCACCCAUGUGCGGGUGUUUCACCCGACAGAAGGGCCAAUCGCGAC [JL-ss2-3.22 ViennaUCT mod] (puzzle: Same State 2) has apparent KD of MS2 coat protein at or above 30 nM?
Met

Does the sequence AUAAGUUUGAUGCUCGUCUCUCCGUACAAACAUGAGGAUCACCCAUGUGGUCGGGAAGUAGCCCGGCCAGUAUGGCA [Arbitius] (puzzle: Sensor for hsa-mir-208a) have recorded apparent KD of MS2 coat protein that is 30 nM or more?
Met

Textbook exercise: given the entry CACAAUCUAUCUGAGGAUAUCAUGAAAAAAACAUGAGGAUCACCCAUGUGCAGGAAAACUGCAUAUGAGAAGGCAGAUAGAUUGC [salish99_SS2_r3_013] (puzzle: Same State 2) , state whether its apparent KD of MS2 coat protein is greater than or equal to 30 nM.
Not met

# bool: apparent KD of MS2 coat protein of UAGACAAGCUUUAUGUUCUUCCUUUUCCUACAUGAGGAUCACCCAUGUAGUCUGUCGAUUGUGAGUGUAGUUGAGAU [JR_SHM208A_Sub025] (puzzle: Sensor for hsa-mir-208a) >= 30 nM
Not met
